# ASSAY TARGET: Acetylcholinesterase (Homo sapiens)
# Sequence (P22303 whole entry): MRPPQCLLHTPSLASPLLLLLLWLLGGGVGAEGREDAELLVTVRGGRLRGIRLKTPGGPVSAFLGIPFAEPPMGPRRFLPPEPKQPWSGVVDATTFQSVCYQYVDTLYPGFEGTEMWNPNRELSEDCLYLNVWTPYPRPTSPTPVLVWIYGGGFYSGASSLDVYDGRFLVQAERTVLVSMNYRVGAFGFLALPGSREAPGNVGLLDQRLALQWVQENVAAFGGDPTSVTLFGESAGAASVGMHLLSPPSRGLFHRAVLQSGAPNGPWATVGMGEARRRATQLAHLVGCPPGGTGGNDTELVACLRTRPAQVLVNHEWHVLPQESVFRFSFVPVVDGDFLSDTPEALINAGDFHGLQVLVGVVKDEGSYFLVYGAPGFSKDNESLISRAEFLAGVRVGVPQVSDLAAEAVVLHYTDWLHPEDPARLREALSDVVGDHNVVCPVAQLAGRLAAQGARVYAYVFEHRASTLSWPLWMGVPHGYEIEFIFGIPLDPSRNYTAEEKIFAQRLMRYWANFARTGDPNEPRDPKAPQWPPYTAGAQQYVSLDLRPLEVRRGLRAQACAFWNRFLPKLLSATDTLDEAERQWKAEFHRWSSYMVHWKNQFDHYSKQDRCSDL
ATTRIBUTE MEASURED: Ki (nM)
Just the number please, in nM, no unit attached.

Can you share its Ki? I mean this compound: "CN(CCC(=O)N1CCN(CCNc2c3c(nc4ccccc24)CCCC3)CC1)c1ccccc1"
13.7

Could you share which Ki value was measured for "CN(CCCN1CCN(CCNc2c3c(nc4ccccc24)CCCC3)CC1)c1ccccc1" ?
80

Would you kindly share the measured Ki for "CCN(CCC(=O)N1CCN(CCNc2c3c(nc4ccccc24)CCCC3)CC1)C1CCCCC1" ?
1.35

Fill in the blank: the reported Ki of "O=C(CCN1CCCCC1)N1CCN(CCNc2c3c(nc4ccccc24)CCCC3)CC1" is ____.
16.8

Entry under review: "CN(CCC(=O)N1CCN(CCNc2c3c(nc4ccccc24)CCCC3)CC1)C1CCCCC1" . Reported Ki?
0.38

Field request: Ki | item: "CN(CCCN1CCN(CCNc2c3c(nc4ccccc24)CCCC3)CC1)C1CCCCC1"
10.3
